Assay: Single dose pharmacokinetics study, oral and intravenous, blood and urine
Type: in vivo
Conditions: ICR (CD-1 IGS), mouse, in vivo, iv, 5 mg/kg
measured_property: AUC(0-inf) (ng·h/mL)
Only the number, expressed in ng·h/mL, is required.

# AUC(0-inf) of C[C@H]1COc2c(N3CC[C@@H](Nc4ncccn4)C3)c(F)cc3c(=O)c(C(=O)O)cn1c23 [KSN-L22] = 6690

---

Assay: Single dose pharmacokinetics study, oral and intravenous, blood and urine
Assay type: in vivo
Conditions: ICR (CD-1 IGS), in vivo; iv, 5.0 mg/kg, mouse, blood, Composite Mean; read-out: Blood CL
measured_property: clearance (mL/min/kg)
Enter your answer as a number in mL/min/kg; do not include the unit.

Briefly, clearance measured for `C[C@H]1COc2c(N3CC[C@@H](Nc4ncccn4)C3)c(F)cc3c(=O)c(C(=O)O)cn1c23` : 12.5

---

Assay: Single dose pharmacokinetics study, oral and intravenous, blood and urine
Type: in vivo
Settings: ICR (CD-1 IGS), mouse, in vivo, iv, 5 mg/kg
Experimental: ICR breed Mice (CD-1® IGS mice) were used in these studies and was supplied by Charles River (Margate UK) and. The mice were allowed to acclimatise for at least 7 days before starting the study. Treatments was administered by oral route or intravenous route according to the table below. […] A compound specific LC-MS/MS method was developed for each test compound and samples was quantified using matrix matched calibrators. […]
measured_property: Vd (L/kg)
Write the value in L/kg as a bare number.

Sure, the documented Vd for C[C@H]1COc2c(N3CCN(C)CC3)c(F)cc3c(=O)c(C(=O)O)cn1c23 [Levofloxacin, levofloxacin] is 4.5

---

Assay: Single dose pharmacokinetics study, oral and intravenous, blood and urine
Type: in vivo
Details: ICR (CD-1 IGS), mouse, in vivo, iv, 5 mg/kg
measured_property: clearance (mL/min/kg)
Express the result in mL/min/kg but write the number alone.

The compound C[C@H]1COc2c(N3CCN(C)CC3)c(F)cc3c(=O)c(C(=O)O)cn1c23 [Levofloxacin, levofloxacin] showed clearance equal to 25.2

---

Assay: Single dose pharmacokinetics study, oral and intravenous, blood and urine
Assay type: in vivo
Settings: ICR (CD-1 IGS), mouse, in vivo, iv, 5 mg/kg
measured_property: MRT (h)
Hi! Could you send only the number? It should be in h, unit omitted.

Please fill in: MRT reported for `C[C@H]1COc2c(N3CCN(C)CC3)c(F)cc3c(=O)c(C(=O)O)cn1c23` = 3
